B1: CPEB3 Ribozyme (parent)
chain: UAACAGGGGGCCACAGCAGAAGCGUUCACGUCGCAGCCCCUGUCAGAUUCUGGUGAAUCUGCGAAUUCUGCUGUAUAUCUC

- Variants of: B1
- METHOD: self-cleavage, relative activity (ratio to wild type); higher = more cleavage; in vitro, sequencing
RECORDED_ENDPOINT: self-cleavage
Write the value as a bare number.

The cases that follow already have their self-cleavage on record.
>>> observed_result("G16A U72A")
0.36
>>> observed_result("U60C U72C")
0.53
>>> observed_result("C4G U26C")
0.96
>>> observed_result("A13C U74C")
1.18
>>> observed_result("C11G U49A")
0.6
>>> observed_result("C32A C62G")
0.13

In one line, give reported self-cleavage of the entry A18G C39G .
0.21

For U41C C62G , write its self-cleavage.
0.15

Fill in reported self-cleavage for this entry: U41A G55U
0.2

Give the reported self-cleavage for this variant. C32U A57C
0.13

Identify self-cleavage associated with the variant G22U U43C
0.3

Tell us which self-cleavage value is on record for C23A U60G
0.06

State its self-cleavage for this variant: U41G U78C
0.21

Dear colleague, please send me the reported self-cleavage for A56G U80A when you can.
0.92

Hello, please tell me recorded self-cleavage for this one: A28G A75U
0.73

Name the recorded self-cleavage of the variant listed here: A75G U78G
0.62

Give me measured self-cleavage, please, for this variant: C4U G8U
0.38

Supply self-cleavage value. Item: U1A G16A
0.38

Supply self-cleavage value. Item: A3U G22U
0.32

Recall and state the measured self-cleavage for C29U A45U .
0.19

# return recorded self-cleavage for entry U26G A77G
0.34

# return recorded self-cleavage for entry C50A U54C
0.83

The reported measurements were obtained from the RNAGym collection of RNA variant scans (doi:10.1093/nar/gkz1192).
